Test system: SW-480 (human colon cancer cells)
Assay: MTT inhibition of tumor cell growth, SW-480
Format: cell-based
Details: Homo sapiens, SW480, 48 h, Table 6, 7-hydroxyl derivatives and controls, read-out: IC50 SW-480, 7-hydroxyl derivatives
measurement-kind: pIC50
In simple prose, pIC50 is minus the logarithm base ten of a concentration in moles per litre.

| molecule | pIC50 |
| --- | --- |
| C=C1C(=O)[C@]23CC[C@H]1CC2[C@@]12CCC[C@@](C)(COC1=O)C2C[C@H]3O (stereo partly drawn) | 5.52 |
| C=C1C(=O)C23CC[C@H]1CC2[C@]1(COC(=O)c2ccccc2)CCC[C@@](C)(COC(=O)c2ccccc2)C1C[C@H]3O (stereo partly drawn) [Compound 72d] | 6.28 |

Let us move to another entry and its pIC50.
Entry under test: C=C1C(=O)[C@]23CC[C@H]1CC2[C@@]12CCC[C@@](C)(CO[C@H]1OC)C2C[C@H]3O (stereo partly drawn) . Its pIC50 was 5.54
